# target-system: G1 APOL1 (Homo sapiens, UniProt O14791, I384M/S342G)
# Construct: expressed in transfected cells
# Sequence (O14791 28-398 S342G/I384M): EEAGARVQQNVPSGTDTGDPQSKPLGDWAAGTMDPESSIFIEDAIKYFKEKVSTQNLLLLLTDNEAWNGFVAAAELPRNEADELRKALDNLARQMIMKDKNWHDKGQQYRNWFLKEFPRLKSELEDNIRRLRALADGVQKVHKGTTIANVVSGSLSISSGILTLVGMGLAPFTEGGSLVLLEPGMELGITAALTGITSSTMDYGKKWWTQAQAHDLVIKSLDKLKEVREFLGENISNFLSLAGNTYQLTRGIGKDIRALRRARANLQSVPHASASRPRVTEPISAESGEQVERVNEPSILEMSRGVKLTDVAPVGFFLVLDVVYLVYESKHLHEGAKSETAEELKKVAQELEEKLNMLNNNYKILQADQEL
# test-description: Acute APOL1 Thallium Assay with inducible stable clones of HEK 293 cells
# Format: cell-based
# conditions-used: HEK 293 T-Rex cells expressing G1 APOL1; read-out: Thallium Assay (IC50)
# Excerpt: Acute APOL1 Thallium Assay with Inducible Stable Clones of HEK 293 Cells Apolipoprotein L1 (APOL1) proteins form potassium-permeable cation pores in the plasma membrane. APOL1 risk variants (G1 and G2) induce greater potassium flux than G0 in HEK293 cells. […] The increase of fluorescence in the assay represents the influx of Tl+ into the cell specifically through the potassium channel (i.e. through APOL1 pores), providing a functional measurement of potassium channel/pore activity. […]
pIC50: −log10 of the molar value.

molecule: O=C([C@H]1C[C@H](c2c(-c3ccc(F)cc3)[nH]c3c(F)cc(F)cc32)C1)N1CCCC(CCO)C1 (stereo partly shown) [Compound 128]
pIC50: < 6.00
--
molecule: CC[C@@H](CO)NC(=O)[C@H]1C[C@H](c2c(-c3ccc(F)cc3)[nH]c3c(F)cc(F)cc32)C1 [Compound 204]
pIC50: 6.00 to 6.60
--
molecule: O=C(N[C@@H]1CCOC1)[C@H]1C[C@@H](c2c(-c3ccc(F)cc3)[nH]c3c(F)cc(F)cc32)C1 [Compound 269]
pIC50: < 6.00
--
molecule: COC[C@@H]1CCN1C(=O)[C@H]1C[C@H](c2c(-c3ccc(F)cc3)[nH]c3c(F)cc(F)cc32)C1 [Compound 220]
pIC50: < 6.00
--
molecule: O=C([C@H]1C[C@H](c2c(-c3ccc(F)cc3)[nH]c3c(F)cc(F)cc32)C1)N1CCC[C@H](O)C1 [Compound 105]
pIC50: < 6.00
--
molecule: C[C@H](O)CNC(=O)[C@H]1C[C@H](c2c(-c3ccc(F)cc3)[nH]c3c(F)cc(F)cc32)C1 [Compound 82]
pIC50: 6.00 to 6.60
--
molecule: CC(O)C1CCCN(C(=O)[C@H]2C[C@H](c3c(-c4ccc(F)cc4)[nH]c4c(F)cc(F)cc43)C2)C1 (stereo partly shown) [Compound 131]
pIC50: < 6.00
--
molecule: O=C(NC1(CO)CC1)[C@H]1C[C@@H](c2c(-c3ccc(F)cc3)[nH]c3c(F)cc(F)cc32)C1 [Compound 253]
pIC50: < 6.00
--
molecule: O=C(NCC(F)F)[C@H]1C[C@@H](c2c(-c3ccc(F)cc3)[nH]c3c(F)cc(F)cc32)C1 [Compound 238]
pIC50: 6.00 to 6.60
--
molecule: NC(=O)CNC(=O)[C@H]1C[C@H](c2c(-c3ccc(F)cc3)[nH]c3c(F)cc(F)cc32)C1 [Compound 1]
pIC50: > 6.60
--
molecule: NC(=O)C1CCCCN1C(=O)[C@H]1C[C@H](c2c(-c3ccc(F)cc3)[nH]c3c(F)cc(F)cc32)C1 (stereo partly shown) [Compound 92]
pIC50: < 6.00
--
molecule: O=C(CNC(=O)[C@H]1C[C@H](c2c(-c3ccc(F)cc3)[nH]c3c(F)cc(F)cc32)C1)NCCO [Compound 231]
pIC50: < 6.00
--
molecule: Cn1cnc(CNC(=O)C2(F)CC(c3c(-c4ccc(F)cc4)[nH]c4c(F)cc(F)cc34)C2)c1 (stereo not shown) [Compound 286]
pIC50: > 6.60
--
molecule: O=C([C@H]1C[C@H](c2c(-c3ccc(F)cc3)[nH]c3c(F)cc(F)cc32)C1)N1CC(O)C(N2CCOCC2)C1 (stereo partly shown) [Compound 106]
pIC50: < 6.00
--
molecule: O=C(NCCO)[C@H]1C[C@H](c2c(-c3ccc(F)cc3)[nH]c3c(F)cc(F)cc32)C1 [Compound 46]
pIC50: > 6.60
--
molecule: Cc1cc(CNC(=O)[C@H]2C[C@H](c3c(-c4ccc(F)cc4)[nH]c4c(F)cc(F)cc43)C2)on1 [Compound 37]
pIC50: < 6.00
--
molecule: O=C([C@H]1C[C@H](c2c(-c3ccc(F)cc3)[nH]c3c(F)cc(F)cc32)C1)N1CC2(CC(O)C2)C1 [Compound 137]
pIC50: < 6.00
--
molecule: O=C(NCCO)C1CC(c2c(-c3ccc(F)cc3)[nH]c3c(F)cc(C(F)(F)F)cc23)C1 (stereo not shown) [Compound 279]
pIC50: 6.00 to 6.60
--
molecule: NC(=O)C1CCN(C(=O)[C@H]2C[C@H](c3c(-c4ccc(F)cc4)[nH]c4c(F)cc(F)cc43)C2)CC1 [Compound 133]
pIC50: < 6.00
--
molecule: CC1(C(=O)N[C@H]2CCNC2=O)CC(c2c(-c3ccc(F)cc3)[nH]c3c(F)cc(F)cc23)C1 (mixture of isomers) [Compound 284]
pIC50: 6.00 to 6.60
--
molecule: NC(=O)[C@@H](CO)NC(=O)[C@H]1C[C@H](c2c(-c3ccc(F)cc3)[nH]c3c(F)cc(F)cc32)C1 [Compound 221]
pIC50: > 6.60
--
molecule: CN(CC1(CO)CCOCC1)C(=O)[C@H]1C[C@H](c2c(-c3ccc(F)cc3)[nH]c3c(F)cc(F)cc32)C1 [Compound 120]
pIC50: < 6.00
--
molecule: O=C([C@H]1C[C@H](c2c(-c3ccc(F)cc3)[nH]c3c(F)cc(F)cc32)C1)N1CC[C@H]1CO [Compound 206]
pIC50: 6.00 to 6.60
--
molecule: CC1(C(=O)NCCO)CC(c2c(-c3ccc(F)cc3)[nH]c3c(F)cc(F)cc23)C1 (mixture of isomers) [Compound 283]
pIC50: 6.00 to 6.60
--
molecule: O=C([C@H]1C[C@H](c2c(-c3ccc(F)cc3)[nH]c3c(F)cc(F)cc32)C1)N1CCCC[C@@H]1CO [Compound 107]
pIC50: < 6.00
--
molecule: O=C1CCC(NC(=O)[C@H]2C[C@H](c3c(-c4ccc(F)cc4)[nH]c4c(F)cc(F)cc43)C2)C1 (stereo partly shown) [Compound 159]
pIC50: < 6.00
--
molecule: Cn1cnc(CNC(=O)[C@H]2C[C@H](c3c(-c4ccc(F)cc4)[nH]c4c(F)cc(F)cc43)C2)c1 [Compound 48]
pIC50: > 6.60
--
molecule: Cn1nccc1NC(=O)[C@H]1C[C@@H](c2c(-c3ccc(F)cc3)[nH]c3c(F)cc(F)cc32)C1 [Compound 247]
pIC50: < 6.00
